Consider the following sequences; for each one, report its folding stability dG unfold.
Assay: folding stability dG unfold (combined trypsin and chymotrypsin); higher = more stable
Answers are plain numbers, in kcal/mol.

Illustrative cases are given below, each with its answer.
[
  {
    "Chain": "SAGGSMKVEVTVTETSTLGDGTRTYTVAVLIDGTPLTFTFPFTSEEEFREAVEEWAKERGVEITLTPSSAGG [r13_750_JUSTAS]",
    "Measurement Label": "folding stability dG unfold",
    "Test Result": 4.25
  },
  {
    "Chain": "SAGGSAGPKVEVELFPVPPFAPGSEFVLLVKTEDGDVILQRFRVKLEGNEPKIEPLGSIVLKPDELSAGGSA [r15_636_TrMRF]",
    "Measurement Label": "folding stability dG unfold",
    "Test Result": 1.78
  },
  {
    "Chain": "SAGGSAGGSAKTYEVKITVTNPNGEKKEITLEVEAETEEELLAAIKALAPPGAKVEIEIREVSAGGSAGGSA [r18_60_TrROS_Hall]",
    "Measurement Label": "folding stability dG unfold",
    "Test Result": 4
  }
]

Here is the next item to consider.
The sequence listed as SAGGMMEIEVEIEKLEDGTYRIRIRVRLPNGEEVEKEMTFDRETGTLTITFDRPIEPDQIVEIEIEPSAGGS [r16_95_TrROS_Hall] shows folding stability dG unfold equal to 4.27
